Target: human ENPP1 (Homo sapiens)
Construct: made in house
Sequence (P22413 whole entry): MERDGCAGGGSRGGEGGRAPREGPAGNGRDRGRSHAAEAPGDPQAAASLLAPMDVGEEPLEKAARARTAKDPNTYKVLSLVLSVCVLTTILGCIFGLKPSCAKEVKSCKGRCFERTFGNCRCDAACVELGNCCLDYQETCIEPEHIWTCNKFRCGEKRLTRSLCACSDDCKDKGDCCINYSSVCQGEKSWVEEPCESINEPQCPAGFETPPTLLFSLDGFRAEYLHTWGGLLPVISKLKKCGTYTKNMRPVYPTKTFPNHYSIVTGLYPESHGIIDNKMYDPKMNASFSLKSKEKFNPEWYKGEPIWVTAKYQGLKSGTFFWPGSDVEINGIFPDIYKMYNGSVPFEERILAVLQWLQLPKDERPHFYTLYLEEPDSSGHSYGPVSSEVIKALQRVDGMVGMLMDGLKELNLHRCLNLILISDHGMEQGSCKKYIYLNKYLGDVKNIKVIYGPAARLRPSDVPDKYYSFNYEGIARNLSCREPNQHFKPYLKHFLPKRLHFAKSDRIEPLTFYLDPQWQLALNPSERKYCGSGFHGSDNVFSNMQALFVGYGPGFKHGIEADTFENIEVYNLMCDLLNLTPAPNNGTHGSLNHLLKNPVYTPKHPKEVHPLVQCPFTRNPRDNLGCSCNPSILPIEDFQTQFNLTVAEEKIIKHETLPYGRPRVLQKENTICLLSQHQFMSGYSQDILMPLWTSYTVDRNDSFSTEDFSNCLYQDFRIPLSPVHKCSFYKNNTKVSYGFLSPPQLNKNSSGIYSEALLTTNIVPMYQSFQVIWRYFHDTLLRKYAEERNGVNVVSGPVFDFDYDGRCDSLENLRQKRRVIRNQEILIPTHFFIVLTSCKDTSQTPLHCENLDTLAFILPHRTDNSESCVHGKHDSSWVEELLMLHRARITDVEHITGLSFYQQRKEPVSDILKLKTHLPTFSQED
Assay: ENPP1 assay with ATP substrate (Transcreener AMP2/GMP2 TR-FRET)
Type: biochemical
Details: 1 hour at room temperature

| compound | IC50 |
| --- | --- |
| Cc1ccc(CCCNC2CCN(c3ncnc4c(C)csc34)CC2)cc1 [Example 3.4] | 0.1 to 1 µM |
| Cn1ncc2c(NCc3ccc(S(N)(=O)=O)cc3F)cc(Cl)nc21 [Example 2.143] | < 0.1 µM |
| Cc1csc2c(N3CCC(NC(=O)CCc4cccc(F)c4)CC3)ncnc12 [Example 3.39] | > 20 µM |
| Cn1ncc2c(NCc3ccc(S(N)(=O)=O)cn3)ncnc21 [Example 2.53] | 0.1 to 1 µM |
| Cn1ncc2c(NCc3ccc(S(N)(=O)=O)cc3)nc(Cl)nc21 [Example 2.92] | < 0.1 µM |
